Each entry below carries its recorded growth.
System: OVCAR-8 ovarian
Experiment: NCI-60 one-dose screen, 48 h (100 = growth as untreated, 0 = no growth, -100 = all killed)
Details: 10 µM unless noted
The panel holds about 83,000 compounds, 20% with a hit somewhere; the sample as a whole holds those more often.
endpoint.label: growth (%)

> print(dat)
                                    compound  endpoint.label  units.text  meas.value
 1  O=c1ccn(C2CC(O)C(O)C(CO)O2)c(=O)[nH]1 (stereo not given)          growth           %         116
 2  COc1cc2c(cc1O)CCN1C[C@@H](CC(C)C)[C@@H](O)C[C@@H]21          growth           %         101
 3  CCN(CC)CCC(CNc1ccnc2cc(Cl)ccc12)c1ccccc1 (stereo not given)          growth           %        61.2
 4  COc1ccc(S(=O)(=O)n2ccc(-c3ccc4c(c3)CCC(C)(C)O4)n2)cc1OC          growth           %        74.6
 5  NC(=N\N=C/c1ccc(O)cc1)/C(N)=N\N=C/c1ccc(O)cc1          growth           %        73.9
 6  COc1cccc(-c2nc3sccn3c2-c2ccnc(NCCCNS(=O)(=O)c3ccc(C(F)(F)F)cc3)c2)c1          growth           %        45.1
 7  CC(C)(C)n1cc(-c2ccnc(NCCNS(=O)(=O)c3ccc(Cl)cc3)c2)c(-c2cccc(O)c2)n1          growth           %        65.1
 8                       Nc1nc(=O)c2ccccc2s1          growth           %         121
 9  COc1ccc(S(=O)(=O)n2cc(C(=O)C(=O)Nc3ccncc3)c3ccccc32)cc1F          growth           %          69
10  CC(C)(C)n1cc(-c2ccnc(NCCCNS(=O)(=O)c3ccc(Br)cc3)c2)c(-c2cccc(O)c2)n1          growth           %        41.1

---

Tested on: SK-MEL-2 melanoma
Experiment: NCI-60 one-dose screen, 48 h (100 = growth as untreated, 0 = no growth, -100 = all killed)
Conditions: 10 µM unless noted
Compounds without any hit were thinned out: in the full panel of roughly 83,000, 20% have a hit.
Hi! Could you tag entries with growth below 60% as T, and those at or above as F? Much appreciated.

> print(dat)
                                   compound  class
1  Cn1ccc(Nc2nccc(Oc3ccc(C(=O)Nc4cccc(F)c4)c(Cl)c3)n2)c1      T
2  O=C(N/N=C/C=C\c1ccccc1)C(=O)N/N=C/C=C/c1ccccc1      F
3  CN(C)c1ncnc2c1ccn2C1OC(CO)C(O)C1O (stereo unspecified)      T
4  CCN(CC)CCOc1ccc(/C(=C(/C)c2ccccc2)c2ccc(OC(C)=O)cc2)cc1      F
5  O=C1/C(=C/c2ccccc2)CN(C(=O)CCN2CCC(=NO)CC2)C/C1=C\c1ccccc1      T
6             O=C1c2ccccc2-c2ccccc2C1(Cl)Cl      T

---

Test system: MOLT-4 leukemia
Test: NCI-60 one-dose screen, 48 h
Details: 10 µM unless noted
About 83,000 compounds went through this panel and 20% of them were active in at least one assay; those are over-represented in the sample as a whole. Active and inactive are the calls of the source. Rule for the calls: active = growth percent below 10; inactive = the rest.
Labels: T = active, F = inactive

> print(dat)
                                    compound  class
 1            CC(=O)Nc1nc(N)nc(NC(C)=O)c1N=O      F
 2  COc1ccc(/C=C(\C#N)c2cc(OC)c3c(c2)OCO3)cc1      T
 3  Cc1cc(C2=NNC(=O)Cc3cc4c(cc32)OCCO4)cc(C)c1N      F
 4  COc1ccc(C(=O)n2nc(/C=C/c3ccc(O)c(OC)c3)cc2/C=C/c2ccc(O)c(OC)c2)cc1      T
 5    FC(F)(F)c1ccccc1-c1cn2c(ccc3ccccc32)n1      F
 6  OC(c1cc2cc(Br)ccc2c2cc(Br)ccc12)C1CCCCN1 (stereo unspecified)      T
 7  COc1cc(-c2nn(-c3cccc(NC(=O)Nc4cc(C(F)(F)F)cc(C(F)(F)F)c4)c3)cc2-c2ccncc2)ccc1Cl      T
 8  C/C=C(\C)C(C(=O)NC1CCCCC1)N(C(=O)C1CCc2cc(F)ccc2O1)c1ccc(Cl)cc1 (stereo unspecified)      F
 9  CC(=O)Oc1csc(N(C(C)=O)c2cccc(C(F)(F)F)c2)n1      F
10  O=C(NNC(=O)N1c2ccccc2C=Cc2ccccc21)c1ccc2ccccc2c1      F
11  COc1ccc(/C=C2\Oc3cc(OCCCN4CCCC4)ccc3C2=O)cc1      F
12  Cc1[nH]c2ccc(F)cc2c1CCNC(=O)C1CCN(C(=O)c2ccccc2)CC1      F
13                CC(=O)Nc1scc[n+]1Cc1ccccc1      F
14  C=C1CCC2C(C)(CO)C(O)CCC2(C)C1C/C=C1/C(=O)OCC1Oc1ccccc1C (stereo unspecified)      F
15                            Nc1cccc(Cl)c1N      F
16  C=C1C(=O)O[C@H]2[C@H]1CC/C(Cn1cc(CNC(=O)c3cc4ccccc4[nH]3)nn1)=C\CC[C@@]1(C)O[C@@H]21      T
17  CCCN=C1NC(=O)/C(=C/c2nc(-c3ccc(OC)cc3)n3ccccc23)S1      F
18  CN(C)c1cccc2c(S(=O)(=O)/N=C(\N)Nc3nc4ccccc4s3)cccc12      F
19  O=C1Nc2ccc(Cl)cc2C12Nc1cc(Cl)ccc1S2 (stereo unspecified)      F
20  O=C(Nc1cccc(-n2cc(-c3ccncc3)c(-c3ccc(Cl)c(O)c3)n2)c1)Nc1cc(C(F)(F)F)cc(C(F)(F)F)c1      T
21  COc1cccc(CC(C)=C(c2ccc(OCCN3CCCCC3)cc2)c2ccc(OCCN3CCCCC3)cc2)c1      T

---

Tested on: A549/ATCC NSCLC
Assay: NCI-60 one-dose screen, 48 h
Details: 10 µM unless noted
The panel holds about 83,000 compounds, 20% with a hit somewhere; the sample as a whole holds those more often. The source made the active and inactive calls. Rule for the calls: active = growth percent below 10; inactive = the rest.
Labels: active, inactive

> print(dat)
                                    molecule     class
 1               Cc1ccc2ccccc2c1C[n+]1ccccc1  inactive
 2  COc1ccc(-c2cc(-c3ccccc3)nc(SCCCC(=O)NO)n2)cc1OC    active
 3  NC1N=C(SCC(=O)N2CCN(c3cc4c(cc3F)c(=O)c(C(=O)O)cn4C3CC3)CC2)NC(=O)/C1=C/c1ccc(Cl)cc1 (stereo not given)  inactive
 4  O=C1Nc2ccc3c(c2/C1=C\c1cc2c(cc1Br)OCO2)OCO3  inactive
 5  Brc1ccc(-c2[nH]ncc2-c2c[nH]c3ccccc23)cc1  inactive
 6       O=C1/C(=C/c2ccccc2)Oc2ccc(O)c(I)c21  inactive
 7  O=[N+]([O-])c1ccc(-c2cn(-c3ccccc3)c(-c3ccccc3)n2)cc1  inactive
 8  O=C1/C(=C/c2ccc(Cl)cc2)CN(Cc2cn(CCNc3ccnc4cc(Cl)ccc34)nn2)C/C1=C\c1ccc(Cl)cc1    active
 9  CCCCCCCCCCCCNC(=O)[C@H]1CSC(c2cc3ccccc3s2)N1 (stereo not given in full)  inactive
10  COc1ccc(Cn2cc3c(c2-c2cc(OC)c(OC)c(OC)c2)CCc2cnoc2-3)cc1  inactive

---

Each entry below carries its recorded growth.
Test system: SF-295 CNS
Assay: NCI-60 one-dose screen, 48 h (100 = growth as untreated, 0 = no growth, -100 = all killed)
Conditions: 10 µM unless noted
About 83,000 compounds went through this panel and 20% of them were active in at least one assay; those are over-represented in the sample as a whole. Calls of active or inactive are those of the source. How the source made its calls: active means growth percent below 10; inactive means the rest.
endpoint.label: growth

> print(dat)
                            compound.smiles  endpoint.label        meas.value
1  Oc1ccc2cc(Br)ccc2c1-c1c(O)ccc2cc(Br)ccc12          growth  76.5% (inactive)
2  COc1ccc(-c2c(-c3cc(OC)c4c(c3)OCO4)noc2N)cc1          growth    2.31% (active)
3         CCN(CC)c1ccc(CNc2ccnc3ccccc23)cc1          growth  51.4% (inactive)
4  CN(C[C@H]1Cc2c(cccc2N2CCN(Cc3ccccn3)CC2)CN1)[C@H]1CCCc2cccnc21          growth  43.4% (inactive)
5  COc1ccc(-c2nc(SCCC(C)C)nc(Nc3ccc(F)c(Cl)c3)c2C#N)cc1          growth    78% (inactive)
